molecular target: Nuclear receptor subfamily 1 group I member 3 (Homo sapiens); test: qHTS assay to identify small molecule antagonists of the constitutive androstane receptor (CAR) signaling pathway (AID 1224838); conditions: HepG2-CYP2B6-hCAR luciferase, CITCO-stimulated, 24 h; series mostly up to 92.4 µM;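 also: HepG2 cells stably expressing hCAR with CYP2B6 luciferase reporter stimulated by CITCO; nearly all actives have a fitted effect of over 40% in size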
Results filed as inconclusive are left out. Activity calls are given as the source filed them. Calls follow the shape of the dose curve; as a rule, active = well fitted inhibition curve with a large enough effect in the repeat runs; inconclusive = weak or mixed curves, or effect the other way; inactive = no such curve, though single readings can be large or run the other way.
Hello, when you answer, please use one of the following outcomes: t = active, f = inactive

Q. Just curious, what result did CNC1CCCN(c2c(F)cc3c(=O)c(C(=O)O)cn(C4CC4)c3c2OC)C1 (stereo not drawn) get here?
A. f

Q. Returns: the outcome recorded for CN1C(CSCC(F)(F)F)Nc2cc(Cl)c(S(N)(=O)=O)cc2S1(=O)=O (stereo not drawn) in this assay.
A. f

Q. In this assay, the call recorded for `BrC(Br)C(Br)Br` was what?
A. f

Q. Recorded call for `Cc1ccc(Nc2c(F)cccc2Cl)c(CC(=O)O)c1` ?
A. f

Q. Dear colleague, could you share the recorded outcome for `COC(=O)c1sccc1S(N)(=O)=O` when you have a moment?
A. f

Q. Would you mind telling me which call this test gave c1ccc(CNc2ncnc3c2ncn3C2CCCCO2)cc1 (stereo not drawn) ?
A. f

Q. Identify the outcome logged in this assay for the molecule shown: `CCN(CC)C(=O)/C(C#N)=C/c1cc(O)c(O)c([N+](=O)[O-])c1`
A. f

Q. Dear colleague, could you share the recorded outcome for `O=c1[nH][nH]c(=O)c2cc([N+](=O)[O-])ccc12` when you have a moment?
A. f

Q. Tell me the recorded outcome of this test for `Nc1ccc(S(=O)(=O)NCc2ccccc2)cc1` .
A. f

Q. What did this assay record as the result for `COc1ccc(N)c([N+](=O)[O-])c1` ?
A. f

Q. Which outcome was assigned to `C=CCOC(=O)COCCC(C)C` in this test?
A. f

Q. Any idea what this test logged for `CCCCCCCC(=O)OCCCCCC` ?
A. f

Q. Per the records of this test, what outcome belongs to `CCNc1nc(N)nc(Cl)n1` ?
A. t

###

target: Nuclear receptor ROR-gamma (Homo sapiens); experiment: qHTS assay to identify small molecule antagonists of the retinoid-related orphan receptor gamma (ROR-gamma) signaling pathway (AID 1159521; also: nearly all actives have a fitted effect of over 50% in size); settings: Tet-on RORgamma CHO cells, RORE-luciferase, 16 h; series mostly up to 92.4 µM
Inconclusive results are not listed. Activity calls are given as the source filed them. Calls come from the whole dose curve; as a rule, active = well fitted inhibition curve with a large enough effect in the repeat runs; inconclusive = weak or mixed curves, or effect the other way; inactive = no such curve, though single readings can be large or run the other way.
A correct response names exactly one class from 1 (yes) for active, 0 (no) for inactive

Q. Would you mind telling me which call this test gave `O[C@@H](CNC[C@H](O)[C@H]1CCc2cc(F)ccc2O1)[C@@H]1CCc2cc(F)ccc2O1` ?
A. 1 (yes)

Q. Test call, this compound: `O=C1[C@@H]2[C@H]3CC[C@H](C3)[C@@H]2C(=O)N1CCCCN1CCN(c2ncccn2)CC1`
A. 0 (no)

Q. Outcome logged for `CC(C)(C(=O)c1cccnc1)c1cccnc1` in this assay:
A. 0 (no)

Q. Tell me the assay call for C1=CCC2CC=CC2C1 (stereo not given) please.
A. 0 (no)

Q. # lookup: test call for CC(C)(C)C(O)/C=C/c1ccc2c(c1)OCO2 (stereo not given)
A. 0 (no)

###

assay: qHTS assay for small molecule disruptors of the mitochondrial membrane potential (AID 720635); details: HepG2 mitochondrial membrane potential, Mito-MPS dye ratio; series mostly up to 83.2 µM
Inconclusive results are not listed. Calls of active or inactive are those of the source. Calls follow the shape of the dose curve; as a rule, active = well fitted inhibition curve with a large enough effect in the signal ratio in the repeat runs; inconclusive = weak or mixed curves, or effect the other way; inactive = flat fitted curve, though single readings scatter; the % refers to the signal ratio.
I would appreciate it if you answered using one of these outcomes: Yes = active, No = inactive

Q. What did the test return for `Cc1cc(CCC(=O)OCCOCCOCCOC(=O)CCc2cc(C)c(O)c(C(C)(C)C)c2)cc(C(C)(C)C)c1O` ?
A. Yes

Q. GET /call?item= `COc1ccc(-c2cc(=S)ss2)cc1` returns the recorded outcome of this test.
A. Yes

Q. Could you check what this test reported for `O=[N+]([O-])C1(Br)COCOC1` ?
A. Yes

Q. Which result was noted for this compound in the test: `Cc1ccc(S(=O)(=O)NC(=O)NC2CCCCC2)cc1`
A. No

Q. // param item: `CC(C)c1ccc(C(=O)N=C(N)N)cc1S(C)(=O)=O` ; yields the recorded call
A. No

Q. Please state the recorded outcome for this compound: `CC(=O)N[C@@H](Cc1ccc(O)cc1)C(=O)O`
A. No

Q. What did the test return for CCC1CCC(CCC(=O)O)C1 (stereo unspecified) ?
A. No

Q. Record request — test call for `O=C(O)c1cccc(Oc2ccccc2)c1`
A. No

Q. Check the results log: what was the call for `CCN(CC)C(=O)N1CCN(C)CC1` ?
A. No

Q. Returns: the outcome recorded for `CCCC(=O)OC(=O)CCC` in this assay.
A. No

Q. Test call, this compound: `O=NN(CCCl)C(=O)NCCCl`
A. No

Q. Recorded call for `Cc1cccc(C)c1NC(=O)c1cc(S(N)(=O)=O)c(Cl)cc1O` ?
A. No

Q. Could you kindly confirm the outcome this assay logged for `O=C1NC(=O)c2cccc3cccc1c23` ?
A. Yes

Q. Lab log entry: `CN=C(N)NC(=O)Nc1c(C)cccc1C` — outcome as called in the assay?
A. No

Q. Test call for this compound, please: `CC(=O)c1ccc[nH]1`
A. No

Q. // return assay outcome for `c1ccc2sc(SSc3nc4ccccc4s3)nc2c1`
A. No

Data origin, for the record: PubChem BioAssay (Tox21)
